- Protocol notes: Stability profile at 25° C. in buffered aqueous solutions
- Type: physicochemical
- Measurement conditions: pH 9, sodium phosphate (0.1-0.2 M), 25° C.
Endpoint: Degradation Rate Constant (k) (h⁻¹)
Give just the numeric value; h⁻¹ need not be written.

Requested read-out: Degradation Rate Constant (k). Entry: COc1ccc2c(c1)nc([S+]([O-])Cc1ncc(C)c(OC)c1C)n2S(=O)(=O)c1ccc(OCC(=O)O)cc1 (stereo not shown)
0.03

* * *

- Protocol notes: Stability profile at 25° C. in buffered aqueous solutions
- Assay type: physicochemical
- Measurement conditions: pH 7.4, sodium phosphate (0.1-0.2 M), 25° C.
- Excerpt: While not intending to be bound in any way by theory, the base-catalyzed degradation is unexpected because the commercial proton pump inhibitors are stabilized in aqueous solutions by adjusting the solution to high pH. […] This should allow bolus injection of the compounds disclosed herein as opposed to the slow infusion of the drug currently in practice because the present compositions will not have the irritation associated with the high pH traditionally used with proton pump inhibitors. […]
Endpoint: Degradation Rate Constant (k) (h⁻¹)
Please respond with the number in h⁻¹ and leave the unit unwritten.

Report Degradation Rate Constant (k) for COc1ccc2c(c1)nc([S+]([O-])Cc1ncc(C)c(OC)c1C)n2S(=O)(=O)c1ccc(OCC(=O)O)cc1 (stereo not shown) [Compound 1] please.
0.002
